Test system: K-562 leukemia
Assay: NCI-60 one-dose screen, 48 h (100 = growth as untreated, 0 = no growth, -100 = all killed)
Settings: 10 µM unless noted
About 83,000 compounds went through this panel and 20% of them were active in at least one assay; those are over-represented in the sample as a whole.
Hi, to clarify the labels: MET covers growth from 6% upward, NOT MET covers anything below 6%.

Lookup: Record CCc1cccc(Sc2cc(C(=O)N3Cc4ccc(OCCN(C)C)cc4C3)ccc2O)c1 ; criterion: growth no lower than 6%. Met?
Found: MET

Lookup: Assess whether reported growth for CC(=O)c1cc(-c2ccccc2N)n(-c2ccc3c(c2)OCO3)c1C sits at 6% or higher.
Found: NOT MET

Lookup: Does growth meet or surpass 6% for CCN1C(=O)N(CC)C2C1NN=c1s/c(=C3\C(=O)N(CCc4ccccc4)c4ccccc43)c(=O)n12 (stereo not given) ?
Found: MET

Lookup: Form field: growth at least 6%? Entry: Cc1nc2ccccc2c(/C=C/c2ccc(C(F)(F)F)cc2)c1C(=O)/C=C/c1ccccc1
Found: NOT MET

Lookup: Reported growth reaches at least 6% for O=C(O)c1cccc(N/C=C/C(=O)c2cc3cc(Br)ccc3oc2=O)c1 ?
Found: MET
